Tested on: MCF7
Method: Antiproliferative activity against human MCF7 cells measured after 72 hrs by MTT assay
Assay type: functional, cell-based
Particulars: MCF7, 72 h
Readout Label: pIC50
One number for each entry, as −log10 of the molar value.

Completed entries (count: 3):
COc1ccc(-c2ccc3nnn(-c4cc(OC)c(OC)c(OC)c4)c3c2)cc1O	7.70
COc1cc(-n2nnc3ccc(-c4ccccc4Cl)cc32)cc(OC)c1OC	5.08
COc1cc(-n2nnc3ccc(-c4ccc(Cl)cc4)cc32)cc(OC)c1OC	5.82

Kindly give each listed record's pIC50.
1. COc1cc(-n2nnc3ccc(-c4cccc([N+](=O)[O-])c4)cc32)cc(OC)c1OC
2. COc1cc(-n2nnc3ccc(-c4ccc(C(F)(F)F)cc4)cc32)cc(OC)c1OC
3. COc1cc(-n2nnc3ccc(-c4ccc(C(C)=O)cc4)cc32)cc(OC)c1OC
4. COc1cc(-n2nnc3ccc(-c4ccc([N+](=O)[O-])cc4)cc32)cc(OC)c1OC
5. COc1cc(-n2nnc3ccc(-c4ccc(F)cc4)cc32)cc(OC)c1OC

1. 5.42
2. 5.47
3. 5.51
4. 5.51
5. 5.90

###

System: MCF7
Method: Antiproliferative activity against human MCF7 cells measured after 72 hrs by MTT assay
Assay type: functional, cell-based
Particulars: MCF7, 72 h
Can you tell me pIC50 for the items I'm about to list?
Answers are plain numbers, as −log10 of the molar value.

Completed entries (count: 5):
COc1cccc(-c2ccc3nnn(-c4cc(OC)c(OC)c(OC)c4)c3c2)c1	5.48
COc1cc(-n2nnc3ccc(-c4cccc(F)c4)cc32)cc(OC)c1OC	5.13
COc1ccc(-c2ccc3ncn(-c4cc(OC)c(OC)c(OC)c4)c3c2)cc1O	7.38
COc1ccccc1-c1ccc2nnn(-c3cc(OC)c(OC)c(OC)c3)c2c1	5.49
COc1cc(-n2nnc3ccc(-c4ccc(C)cc4)cc32)cc(OC)c1OC	6.48

Kindly give each listed record's pIC50.
1. COc1cc(-n2nnc3ccc(-c4cccc(O)c4)cc32)cc(OC)c1OC
2. COc1cc(-n2nnc3ccc(-c4cccc(C)c4)cc32)cc(OC)c1OC
3. CCOc1ccc(-c2ccc3nnn(-c4cc(OC)c(OC)c(OC)c4)c3c2)cc1
4. COc1ccc(-c2ccc3nnn(-c4cc(OC)c(OC)c(OC)c4)c3c2)cc1

1: 6.59; 2: 6.67; 3: 5.08; 4: 6.67

###

System: MCF7
Method: Antiproliferative activity against human MCF7 cells measured after 72 hrs by MTT assay
Type: functional, cell-based
Particulars: MCF7, 72 h
Readout Label: pIC50
Give bare numbers, as −log10 of the molar value.

Kindly give each listed record's pIC50.
1. COc1cc(-n2nnc3ccc(-c4ccc(Cl)cc4Cl)cc32)cc(OC)c1OC
2. COc1cc(-n2nnc3ccc(-c4ccc(C)cc4F)cc32)cc(OC)c1OC
3. COc1cc(-n2nnc3ccc(-c4cccc(Cl)c4)cc32)cc(OC)c1OC

1: 5.18; 2: 7.04; 3: 5.64

Kindly give each listed record's pIC50.
1. COc1cc(-n2nnc3ccc(-c4ccccc4)cc32)cc(OC)c1OC
2. COc1cc(OC)cc(-n2nnc3ccc(-c4ccc(OC)c(O)c4)cc32)c1
3. COc1ccc(-c2ccc3nnn(-c4ccc(OC)c(OC)c4)c3c2)cc1O
4. COc1cc(-n2nnc3ccc(-c4ccc(O)cc4)cc32)cc(OC)c1OC
5. COc1cc2c(c(OC)c1OC)-c1ccc(OC)c(=O)cc1[C@@H](NC(C)=O)CC2

[6.62, 6.14, 6.46, 5.89, 7.52]
